# system name: Trace amine-associated receptor 1 (Homo sapiens) (UniProt Q96RJ0)
# Sequence (Q96RJ0 whole entry, looked up): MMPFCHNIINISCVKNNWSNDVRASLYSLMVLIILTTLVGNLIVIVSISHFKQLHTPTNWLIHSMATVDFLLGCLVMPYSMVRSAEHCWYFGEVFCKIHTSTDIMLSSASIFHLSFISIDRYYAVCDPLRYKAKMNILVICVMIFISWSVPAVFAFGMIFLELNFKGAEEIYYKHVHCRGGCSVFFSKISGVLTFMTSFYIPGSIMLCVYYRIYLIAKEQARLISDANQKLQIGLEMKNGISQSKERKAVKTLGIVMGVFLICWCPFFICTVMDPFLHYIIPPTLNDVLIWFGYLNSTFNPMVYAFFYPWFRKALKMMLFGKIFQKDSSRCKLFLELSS
# assay procedure: activators of TAAR1 calcium signal, triplicate retest – Fluo-8 calcium fluorescence, CHO RD-HGA16 cells, confirmation (AID 651783);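 further: promiscuous G-alpha-16 overexpression reroutes TAAR1 signalling from cAMP to calcium; peak fluorescence divided by basal pre-compound fluorescence per well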
# condition description: CHO RD-HGA16 TAAR1, Fluo-8 calcium fluorescence; at 3 µM; scaled: DMSO 0%, maximal phenethylamine 100%
The campaign covered roughly 2,400 compounds. About 2,000 (83%) were called active.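 How the source made its calls: active means activation above a cutoff set at the run's mean compound activation plus 3 SD (cut at about 39% in these data); inactive means the rest.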 The set was probably picked from earlier hits. Not all results are given here.
Result category, one only: active, inactive

Some entries whose results are on file:
                                   molecule  label_class
0  O=C(/C=C/[C@H]1O[C@@H](n2cnc3c(NC(=O)c4ccccc4)ncnc32)[C@H](O)[C@@H]1O)NCc1ccccc1     inactive
1  O=C(CSc1nc(-c2ccco2)cc(C(F)(F)F)n1)NCc1cccs1     inactive

Answer briefly: the call reported for CCCCc1c(-c2ccc(Br)cc2)ncn1CCc1ccccc1OC in this assay.
active

Answer briefly: the call reported for CC(=O)Oc1ccc(Cn2c(C)c(C(=O)NCc3ccc(C#N)cc3)sc2=O)cc1 in this assay.
active

Answer briefly: the call reported for CCCCC(=O)NNC(=S)NC(=O)C(c1ccccc1)c1ccccc1 in this assay.
active

Answer briefly: the call reported for O=[N+]([O-])c1cc(S(=O)(=O)NCCc2ccccn2)ccc1Cl in this assay.
active

Answer briefly: the call reported for Cc1ccccc1-c1nc(CS(=O)(=O)CC(=O)N2CCc3ccccc3C2)c(C)o1 in this assay.
active

Answer briefly: the call reported for c1ccc(C2CNCc3c2ccc2ccccc32)cc1 (configuration not stated) in this assay.
active

Answer briefly: the call reported for CCc1ccc(-c2nn(-c3ccccc3)cc2CSC(=N)N)cc1 in this assay.
active

Answer briefly: the call reported for CC(Oc1ccc(Cl)cc1)C(=O)OCC(=O)Nc1ncc(Cl)cc1Cl (configuration not stated) in this assay.
inactive

Answer briefly: the call reported for CCC(C(=O)Nc1ccc(C(C)C)cc1)c1ccccc1 (configuration not stated) in this assay.
active

Answer briefly: the call reported for COc1cc(OC)cc(C(=O)N[C@H](C(=O)OCC(=O)NC(C)c2ccccc2)C(C)C)c1 (some centres not stated) in this assay.
active
